# assay.target: T1, Cyno ST2-fc (cyno; human, UniProt A0A2K5UDB8 19-331)
# T1 construct: also called cyno ST2 fused with a human IgG1 Fc tag at the C-terminus
# T1 sequence: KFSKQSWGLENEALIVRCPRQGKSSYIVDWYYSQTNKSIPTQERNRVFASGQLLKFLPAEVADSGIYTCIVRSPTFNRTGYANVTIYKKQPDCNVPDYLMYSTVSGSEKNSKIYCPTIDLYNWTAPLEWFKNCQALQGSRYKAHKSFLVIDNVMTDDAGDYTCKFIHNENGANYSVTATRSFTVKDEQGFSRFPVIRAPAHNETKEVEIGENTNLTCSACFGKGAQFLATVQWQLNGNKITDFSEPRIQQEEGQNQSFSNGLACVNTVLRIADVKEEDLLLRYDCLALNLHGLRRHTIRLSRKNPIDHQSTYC
# assay: SPR Biacore X100, antibody on CM5, cyno ST2-fc analyte
# Method: The experiment on the interactions between the anti-human ST2 antibodies and cyno ST2-fc was performed using Biacore X100, and was carried out at 25° C. in HBS-EP (1×) buffer (pH 7.4). Each antibody was immobilized on the surface of CM5 chip using an amino coupling kit. […] Association was monitored for 2 min and dissociation for 10 min, and the sensor surface was regenerated by injecting a solution of glycine at pH 1.5.
The following binders are shown together with reported Kd values.
# value in nM; strip the unit string

{"binder": "5887-41H+L (antibody, V domains shown, murine antibody) VH: DVQLQQSGPGLVKPSQSLSLTCTVTGYSITSDYAWDWIRQFPGNKLEWMGYIRYSGDTYYNPSLKSRISITRDTSKNQFFLQLNSVTTEDTATYYCATTMMDTMDYWGQGTSVTVSS VL: DIVLTQSPASLTVSLGQRATISCRASKSVSTSGNSYMHWYQQKPGQPPKLLIYLASNLESGVPARFSGSGSGTDFTLNIHPVEEEDAATYYCQHSREFPLTFGAGTKLELK", "units.of.measure": "nM", "Kd": 0.0903}

API: the following record is the query input.
Ask | Kd for 5888-357H+L (antibody, V domains shown, murine antibody) VH: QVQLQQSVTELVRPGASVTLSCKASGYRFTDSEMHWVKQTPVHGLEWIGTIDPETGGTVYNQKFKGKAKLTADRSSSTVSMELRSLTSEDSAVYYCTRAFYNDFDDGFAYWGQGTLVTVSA VL: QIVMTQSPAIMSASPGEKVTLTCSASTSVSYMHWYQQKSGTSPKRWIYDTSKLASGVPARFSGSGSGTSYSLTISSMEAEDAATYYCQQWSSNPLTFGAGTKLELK ?
Reply | 0.129
